Attribution: DBAASP

MIC, Candida albicans ATCC 10231: measured values
Use µM as the unit, but write only the number.

Worked examples, 6 compounds total:
CC[C@H](C)[C@H](NC(=O)[C@H](CCCCN)NC(=O)[C@H](CCCCN)NC(=O)[C@H](CC(C)C)NC(=O)[C@@H](NC(=O)[C@H](CCCCN)NC(=O)[C@H](Cc1c[nH]c2ccccc12)NC(=O)[C@@H](N)CC(C)C)[C@@H](C)CC)C(=O)N[C@@H](Cc1c[nH]c2ccccc12)C(=O)N[C@@H](CCCN=C(N)N)C(=O)N[C@H](C(=O)NCC(=O)N[C@@H](Cc1c[nH]c2ccccc12)C(=O)N[C@@H](CC(N)=O)C(=O)N[C@@H](Cc1c[nH]c2ccccc12)C(=O)N[C@@H](CCCN=C(N)N)C(=O)O)C(C)C 29.3
CC[C@H](C)[C@H](NC(=O)[C@H](Cc1c[nH]c2ccccc12)NC(=O)[C@H](CCCCN)NC(=O)[C@@H](N)CC(C)C)C(=O)NCC(=O)N[C@@H](CCCCN)C(=O)N[C@@H](CCCCN)C(=O)N[C@H](C(=O)N[C@@H](Cc1c[nH]c2ccccc12)C(=O)N[C@@H](CCCN=C(N)N)C(=O)N[C@H](C(=O)NCC(=O)N[C@@H](Cc1c[nH]c2ccccc12)C(=O)N[C@@H](CC(N)=O)C(=O)N[C@@H](Cc1c[nH]c2ccccc12)C(=O)N[C@@H](CCCN=C(N)N)C(=O)O)C(C)C)[C@@H](C)CC 60.2
CC[C@H](C)[C@H](N)C(=O)N[C@@H](CC(N)=O)C(=O)N[C@@H](CC(C)C)C(=O)N[C@@H](CCCCN)C(=O)NCC(=O)N[C@@H](CC(C)C)C(=O)N[C@H](C(=O)N[C@@H](CCCCN)C(=O)N[C@@H](CCCCN)C(=O)N[C@H](C(=O)N[C@@H](C)C(=O)N[C@@H](CO)C(=O)N[C@@H](CC(C)C)C(=O)N[C@@H](CC(C)C)C(=O)N[C@H](C(=O)O)[C@@H](C)O)C(C)C)[C@@H](C)CC 100
CC[C@H](C)[C@H](NC(=O)[C@H](CCCN=C(N)N)NC(=O)CNC(=O)[C@H](CC(C)C)NC(=O)[C@H](Cc1ccccc1)NC(=O)[C@H](CCCCN)NC(=O)[C@H](CO)NC(=O)[C@H](Cc1ccccc1)NC(=O)[C@H](Cc1c[nH]c2ccccc12)NC(=O)[C@H](CCCCN)NC(=O)[C@@H](NC(=O)[C@@H](N)Cc1ccccc1)C(C)C)C(=O)N[C@@H](CC(C)C)C(N)=O 6
CC[C@H](C)[C@H](NC(=O)[C@H](CCCN=C(N)N)NC(=O)[C@H](CCCN=C(N)N)NC(=O)[C@H](Cc1ccccc1)NC(=O)[C@H](CC(C)C)NC(=O)[C@H](CCCN=C(N)N)NC(=O)[C@@H](N)CCCN=C(N)N)C(=O)N[C@@H](CC(C)C)C(=O)N[C@@H](CCCN=C(N)N)C(=O)N[C@@H](Cc1c[nH]c2ccccc12)C(=O)N[C@@H](CC(C)C)C(N)=O 7.57
CC(C)[C@H](NC(=O)[C@H](CCCCN)NC(=O)CNC(=O)CNC(=O)[C@H](CCC(N)=O)NC(=O)[C@H](CCCCN)NC(=O)CNC(=O)[C@H](CCCN=C(N)N)NC(=O)CNC(=O)[C@@H](N)CCCCN)C(=O)N[C@@H](CCCN=C(N)N)C(=O)N[C@@H](C)C(=O)N[C@@H](CCCCN)C(=O)N[C@@H](C)C(=O)N[C@@H](CCCCN)C(=O)N[C@H](C(=O)N[C@@H](CCCN=C(N)N)C(=O)O)[C@@H](C)O 0.548

Read the next record carefully.
Q: Entry `C[C@H](NC(=O)[C@H](CCCN=C(N)N)NC(=O)[C@H](Cc1c[nH]c2ccccc12)NC(=O)[C@H](Cc1c[nH]c2ccccc12)NC(=O)[C@H](Cc1c[nH]c2ccccc12)NC(=O)[C@@H]1CCCN1C(=O)[C@H](CCCN=C(N)N)NC(=O)[C@H](CCCN=C(N)N)NC(=O)CN)C(=O)N[C@@H](CCCN=C(N)N)C(N)=O` has what MIC?
A: 21.9
